Hello, the source for this data is patent US10287297B2, in case you need it.

Tested on: NCI-H322M
Test: NCI 60 cell assay, NSCLC NCI-H322M
Type: cell-based
Conditions: Homo sapiens, 48 h, drug exposure two days, SRB endpoint, read-out: GI-50 value
Kindly supply the reported GI50 values for the records listed here.
Kindly answer with a numeric value in µM, unit omitted.

For the compound CC1=C2[C@@H](CC1)[C@]1(C)O[C@@](C3CCCCC3)(C[C@H]1OC(=O)CO)[C@H]2OC(=O)C=Cc1ccccc1 [(Iq)] , give its reported GI50.
17

Give the reported GI50 for this compound. CC1=C2[C@@H](CC1)[C@]1(C)O[C@@](C(C)C)(C[C@H]1OC(=O)CO)[C@H]2OC(=O)C1CC1c1ccccc1 (stereo partly shown) [Compound (Ij)]
19

Recall and state the measured GI50 for CC1=C2[C@@H](CC1)[C@]1(C)O[C@@](C(C)C)(C[C@H]1OC(=O)[C@H](C)O)[C@H]2OC(=O)C=Cc1ccccc1 [(Il)] .
19

Determine from records and report GI50 for CC(=O)O[C@@H]1C[C@]2(C(C)C)O[C@@]1(C)[C@@H]1CCC(C)=C1[C@@H]2OC(=O)C=Cc1ccccc1 [(Im)]
100
